All figures here come from ChEMBL document CHEMBL3885861.

species: Rattus norvegicus; assay: Open TG-GATES - Regimen: Single; assay type: toxicity, organism-based, Sprague-Dawley; design: regimen Single, gender Male, age 6 weeks; conditions: in vivo, po, 0 mg/kg, 9 h, tissue Plasma, route gavage, dose level Control
Entries and their gamma-GTP
# output: bare number, implied unit IU/L

// worked examples, gamma-GTP included
[
  {
    "compound": "COc1ccc(Cc2nccc3cc(OC)c(OC)cc23)cc1OC",
    "gamma-GTP [IU/L]": 1.6
  },
  {
    "compound": "Clc1ccccc1CN1CCc2sccc2C1",
    "gamma-GTP [IU/L]": 1
  },
  {
    "compound": "CC(=O)Oc1ccccc1C(=O)O",
    "gamma-GTP [IU/L]": 1.2
  }
]

Measured gamma-GTP of "Cn1c(=O)c2[nH]cnc2n(C)c1=O.O" : 1

For this compound ( CCc1cc(C(N)=S)ccn1 [ETHIONAMIDE] ), measured gamma-GTP is 1.2

Quick note, gamma-GTP for "CN(C)CCC=C1c2ccccc2CCc2ccccc21" landed at 1

Query "C[C@H](CS)C(=O)N1CCC[C@H]1C(=O)O" yields gamma-GTP of 2

Entry NC(=O)N1c2ccccc2C=Cc2ccccc21 [CARBAMAZEPINE] ; gamma-GTP = 1

Short answer for "O=C(O)c1cn(C2CC2)c2cc(N3CCNCC3)c(F)cc2c1=O" : gamma-GTP was 1.4
